Listed next: entries and their corresponding IC50 (pM), blocking of Ba/F3 cell proliferation.
Target: T1, "Non-linked" human IL-23 (human p40 coexpressed in 293T cells with human p19:FLAG-tag peptide) (human, UniProt P29460 23-328)
T1 sequence 1: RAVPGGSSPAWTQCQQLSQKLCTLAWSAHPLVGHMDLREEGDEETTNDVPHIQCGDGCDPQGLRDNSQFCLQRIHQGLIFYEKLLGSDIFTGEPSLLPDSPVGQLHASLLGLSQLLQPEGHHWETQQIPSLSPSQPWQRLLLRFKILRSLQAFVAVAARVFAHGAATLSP
T1 sequence 2: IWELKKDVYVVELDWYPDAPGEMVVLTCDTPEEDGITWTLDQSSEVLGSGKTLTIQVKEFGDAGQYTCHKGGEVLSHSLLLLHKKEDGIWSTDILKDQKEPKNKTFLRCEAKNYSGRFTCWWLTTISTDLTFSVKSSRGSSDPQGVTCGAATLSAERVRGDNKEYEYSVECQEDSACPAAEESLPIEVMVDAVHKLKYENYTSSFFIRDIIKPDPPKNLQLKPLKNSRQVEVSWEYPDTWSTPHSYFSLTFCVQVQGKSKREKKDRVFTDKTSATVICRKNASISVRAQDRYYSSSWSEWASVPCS
Assay: cell-based or functional assay
Response body: numeric value in pM, unit text excluded.

Entry mouse anti-human IL-23p19 antibody 3C4 (antibody, V domains shown) VH: QVQLQQSGGELARPGASVKLSCKASGYTFTSYGIKWVKQRFGQGLEWIGEIFPRGGNTYYNEKFKGKATLTADKSSSTAYMELRSLTSEDSAVYFCTANWDLDYWGQGTTLTVSS VL: DIVMTQSPATLSVTPGDRVSLSCRASQSISDYLHWYQQKSHESPRLLIKYASQSISGIPSRFSGSGSGSDFTLSINSVESEDVGVYYCQNGHSFPFTFGSGTKLKIKR has what IC50 (pM), blocking of Ba/F3 cell proliferation? 12
